- Target desc: BLK (Homo sapiens, UniProt P51451)
- Sequence (P51451 whole entry): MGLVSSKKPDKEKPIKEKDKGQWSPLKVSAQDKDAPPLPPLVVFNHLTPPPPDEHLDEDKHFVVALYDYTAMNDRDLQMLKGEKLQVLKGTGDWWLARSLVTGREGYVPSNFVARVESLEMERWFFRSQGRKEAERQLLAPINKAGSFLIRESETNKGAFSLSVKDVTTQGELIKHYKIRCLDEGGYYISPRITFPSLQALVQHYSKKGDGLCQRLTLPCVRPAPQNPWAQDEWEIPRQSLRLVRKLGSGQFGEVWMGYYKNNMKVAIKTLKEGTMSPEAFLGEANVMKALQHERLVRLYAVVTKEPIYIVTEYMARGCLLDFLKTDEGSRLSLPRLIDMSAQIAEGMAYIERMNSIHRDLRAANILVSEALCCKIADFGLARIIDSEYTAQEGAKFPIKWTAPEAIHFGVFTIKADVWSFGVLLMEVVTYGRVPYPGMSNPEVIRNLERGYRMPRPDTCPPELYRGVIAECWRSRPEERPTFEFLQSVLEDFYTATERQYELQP
pIC50: −log10 of the molar value.
Reported metric: pIC50

Query string: Fill in reported pIC50 for this entry: CCc1nc(C(N)=O)c(Nc2ccc(N3CCC(Nc4ccccc4)CC3)c(OC)c2)nc1NC1CCOC(C(O)CO)C1 (stereo not shown)
Result string: < 5.00

---

- Target desc: JAK1 (Homo sapiens, UniProt P23458)
- Sequence (P23458 whole entry): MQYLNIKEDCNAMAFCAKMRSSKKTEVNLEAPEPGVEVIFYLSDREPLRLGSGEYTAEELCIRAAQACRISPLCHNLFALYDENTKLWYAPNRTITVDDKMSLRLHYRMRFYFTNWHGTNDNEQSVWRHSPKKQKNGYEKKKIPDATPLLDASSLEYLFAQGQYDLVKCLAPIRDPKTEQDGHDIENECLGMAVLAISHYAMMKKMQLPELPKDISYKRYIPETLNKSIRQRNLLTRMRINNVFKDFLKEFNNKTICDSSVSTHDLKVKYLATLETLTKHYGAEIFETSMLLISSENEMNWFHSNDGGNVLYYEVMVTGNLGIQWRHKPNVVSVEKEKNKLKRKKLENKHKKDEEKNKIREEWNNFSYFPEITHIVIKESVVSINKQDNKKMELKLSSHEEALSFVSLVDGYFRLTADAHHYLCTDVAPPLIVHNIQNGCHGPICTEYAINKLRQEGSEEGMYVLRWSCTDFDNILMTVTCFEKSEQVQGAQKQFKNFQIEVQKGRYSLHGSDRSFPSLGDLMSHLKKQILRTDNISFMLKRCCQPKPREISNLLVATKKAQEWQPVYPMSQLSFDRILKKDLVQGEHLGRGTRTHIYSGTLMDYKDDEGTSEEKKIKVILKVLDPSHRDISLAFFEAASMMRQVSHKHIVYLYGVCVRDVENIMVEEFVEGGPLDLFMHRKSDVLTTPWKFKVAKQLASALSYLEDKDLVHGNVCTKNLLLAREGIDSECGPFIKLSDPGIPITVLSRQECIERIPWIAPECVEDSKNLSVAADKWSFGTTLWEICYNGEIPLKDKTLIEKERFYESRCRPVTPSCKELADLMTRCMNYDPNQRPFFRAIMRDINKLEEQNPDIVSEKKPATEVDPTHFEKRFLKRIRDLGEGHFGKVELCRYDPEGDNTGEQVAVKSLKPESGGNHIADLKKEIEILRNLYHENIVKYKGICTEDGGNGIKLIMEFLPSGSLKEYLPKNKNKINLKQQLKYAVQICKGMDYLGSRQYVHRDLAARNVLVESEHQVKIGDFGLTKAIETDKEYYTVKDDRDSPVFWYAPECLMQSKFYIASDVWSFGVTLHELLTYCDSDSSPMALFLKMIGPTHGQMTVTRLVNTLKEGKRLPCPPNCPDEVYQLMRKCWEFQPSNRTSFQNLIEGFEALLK
pIC50: −log10 of the molar value.
Reported metric: pIC50

Query string: Report pIC50 for CCc1nc(C(N)=O)c(Nc2ccc(N3CCC(Nc4ccccc4)CC3)c(OC)c2)nc1NC1CCOC(C(O)CO)C1 (stereo not shown)
Result string: < 5.00

---

- Target desc: FES (Homo sapiens, UniProt P07332)
- Sequence (P07332 whole entry): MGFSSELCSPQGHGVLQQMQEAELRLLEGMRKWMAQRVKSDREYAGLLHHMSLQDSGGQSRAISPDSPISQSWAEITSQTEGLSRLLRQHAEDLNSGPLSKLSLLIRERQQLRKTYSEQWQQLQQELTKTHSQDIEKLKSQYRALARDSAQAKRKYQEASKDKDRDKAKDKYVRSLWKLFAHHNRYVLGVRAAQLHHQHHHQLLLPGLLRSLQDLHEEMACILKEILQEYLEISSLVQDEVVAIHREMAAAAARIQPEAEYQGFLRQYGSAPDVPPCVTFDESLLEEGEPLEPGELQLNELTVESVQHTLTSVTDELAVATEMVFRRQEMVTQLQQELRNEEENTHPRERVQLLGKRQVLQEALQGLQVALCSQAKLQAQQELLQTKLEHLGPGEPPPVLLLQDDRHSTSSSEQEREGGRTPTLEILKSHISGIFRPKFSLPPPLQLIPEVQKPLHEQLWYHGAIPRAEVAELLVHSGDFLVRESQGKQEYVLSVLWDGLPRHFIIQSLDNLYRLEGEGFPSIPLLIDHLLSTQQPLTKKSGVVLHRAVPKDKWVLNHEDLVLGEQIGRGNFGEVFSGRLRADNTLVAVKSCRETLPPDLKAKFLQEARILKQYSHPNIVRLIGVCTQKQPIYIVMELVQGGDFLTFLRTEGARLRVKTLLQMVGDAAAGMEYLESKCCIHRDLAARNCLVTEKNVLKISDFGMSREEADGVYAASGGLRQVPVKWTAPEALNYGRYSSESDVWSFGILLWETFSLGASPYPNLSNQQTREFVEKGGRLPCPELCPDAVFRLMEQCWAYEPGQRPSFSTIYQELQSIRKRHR
Reported metric: IC50

Query string: Indicate its recorded IC50; the compound in question is CCc1nc(C(N)=O)c(Nc2ccc(N3CCC(Nc4ccccc4)CC3)c(OC)c2)nc1NC1CCOC(C(O)CO)C1 (stereo not shown)
Result string: > 10 µM

---

- Target desc: EPHB4 (Homo sapiens)
- Sequence (P54760 16-987): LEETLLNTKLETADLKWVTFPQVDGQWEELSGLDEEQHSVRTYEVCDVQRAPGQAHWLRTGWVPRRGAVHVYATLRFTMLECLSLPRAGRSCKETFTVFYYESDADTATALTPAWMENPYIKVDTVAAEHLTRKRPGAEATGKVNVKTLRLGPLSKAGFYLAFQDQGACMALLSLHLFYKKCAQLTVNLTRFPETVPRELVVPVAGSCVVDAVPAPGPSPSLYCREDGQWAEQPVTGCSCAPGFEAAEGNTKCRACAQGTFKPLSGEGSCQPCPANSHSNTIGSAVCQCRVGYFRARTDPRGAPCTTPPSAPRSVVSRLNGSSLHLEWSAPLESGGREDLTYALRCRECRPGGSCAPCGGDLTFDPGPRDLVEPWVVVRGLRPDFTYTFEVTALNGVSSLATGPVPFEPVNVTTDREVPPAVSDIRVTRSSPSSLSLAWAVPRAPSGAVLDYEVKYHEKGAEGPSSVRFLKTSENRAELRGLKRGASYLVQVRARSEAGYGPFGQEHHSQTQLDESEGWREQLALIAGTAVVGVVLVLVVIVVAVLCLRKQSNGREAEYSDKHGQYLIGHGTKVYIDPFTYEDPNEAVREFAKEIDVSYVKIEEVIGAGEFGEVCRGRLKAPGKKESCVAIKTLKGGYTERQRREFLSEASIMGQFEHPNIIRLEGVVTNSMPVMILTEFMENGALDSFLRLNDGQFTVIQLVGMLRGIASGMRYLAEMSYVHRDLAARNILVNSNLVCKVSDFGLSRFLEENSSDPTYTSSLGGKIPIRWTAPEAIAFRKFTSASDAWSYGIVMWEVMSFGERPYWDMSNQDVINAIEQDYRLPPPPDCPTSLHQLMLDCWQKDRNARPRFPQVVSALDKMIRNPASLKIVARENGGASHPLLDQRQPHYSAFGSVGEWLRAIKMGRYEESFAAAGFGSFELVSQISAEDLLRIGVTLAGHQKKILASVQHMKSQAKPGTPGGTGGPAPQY
pIC50: −log10 of the molar value.
Reported metric: pIC50

Query string: State measured pIC50 of the compound CCc1nc(C(N)=O)c(Nc2ccc(N3CCC(Nc4ccccc4)CC3)c(OC)c2)nc1NC1CCOC(C(O)CO)C1 (stereo not shown) with EPHB4 (Homo sapiens).
Result string: < 5.00
